# test-system: BRD9 (Homo sapiens)
# Sequence (Q9H8M2 1-597): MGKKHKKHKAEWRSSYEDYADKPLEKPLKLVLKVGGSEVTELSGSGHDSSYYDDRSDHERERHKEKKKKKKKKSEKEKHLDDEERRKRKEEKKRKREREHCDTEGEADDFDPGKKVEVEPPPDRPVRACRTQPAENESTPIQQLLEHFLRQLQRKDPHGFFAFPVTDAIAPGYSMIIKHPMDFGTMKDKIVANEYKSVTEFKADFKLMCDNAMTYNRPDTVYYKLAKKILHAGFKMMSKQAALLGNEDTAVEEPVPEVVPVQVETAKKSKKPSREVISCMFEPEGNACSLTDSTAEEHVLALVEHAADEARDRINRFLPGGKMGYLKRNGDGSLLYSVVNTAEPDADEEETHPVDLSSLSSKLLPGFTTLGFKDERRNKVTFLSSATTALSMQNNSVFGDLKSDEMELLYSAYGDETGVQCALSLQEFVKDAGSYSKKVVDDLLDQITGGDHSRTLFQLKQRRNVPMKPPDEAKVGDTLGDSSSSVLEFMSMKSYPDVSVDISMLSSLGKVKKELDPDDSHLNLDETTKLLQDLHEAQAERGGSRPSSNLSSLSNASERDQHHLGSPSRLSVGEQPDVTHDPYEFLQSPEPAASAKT
# measurement-notes: Degradation of BRD9 (IF), immunofluorescence in MV4-11 cells, 24 hours (Assay Protocol 2)
# Type: cell-based
# Design: A suspension of MV4-11 cells (ATCC CRL-9591) was prepared; host or cells: MV4-11
# protocol-conditions: MV4-11, Assay protocol 2; BRD9 degradation; read-out: Dmax
Below, each entry is listed alongside its reported Dmax.

{"compound": "COc1cc(-c2cn(C)c(=O)c(C)c2C)cc(OC)c1CN1CCN(Cc2cccc3c2CCN(C(=O)/C(C#N)=C/c2cccnc2OC)C3C)CC1 (mixture of isomers)", "Dmax": "40 to 70%"}
{"compound": "COc1cccnc1/C=C(\\C#N)C(=O)N1CCc2c(CN3CCN(Cc4c(OC)cc(-c5cn(C)c(=O)c(C)c5C)cc4OC)CC3)cccc2C1C (mixture of isomers)", "Dmax": "25 to 40%"}
{"compound": "COc1cc(-c2cn(C)c(=O)c(C)c2C)cc(OC)c1CN1CCN(Cc2cccc3c2CCN(C(=O)/C(C#N)=C/C(C)(C)C)C3C2CC2)C2(CC2)C1 (mixture of isomers)", "Dmax": "> 75%"}
{"compound": "COc1cc(-c2cn(C)c(=O)c(C)c2C)cc(OC)c1CN1CCC(N(C)c2ccc3c(c2)[C@@H](C)N(C(=O)/C(C#N)=C/C(C)(C)C)CC3)CC1 (single isomer, unassigned)", "Dmax": "40 to 70%"}
{"compound": "COc1cc(-c2cn(C)c(=O)c(C)c2C)cc(OC)c1CN1CCN(Cc2cccc3c2CCN(C(=O)/C(C#N)=C/C2(C)CCC2)C3C)CC1 (mixture of isomers)", "Dmax": "40 to 70%"}
{"compound": "COc1cc(-c2cn(C)c(=O)c(C)c2C)cc(OC)c1CN1CCN(Cc2cccc3c2CCN(C(=O)/C(C#N)=C/C(C)(C)C)C3C)C(=O)C1(C)C (mixture of isomers)", "Dmax": "> 75%"}
{"compound": "COc1cc(-c2cn(C)c(=O)c(C)c2C)ccc1OC1CCC(Cc2cccc3c2CCN(C(=O)/C(C#N)=C/C(C)(C)N2CCN(C)CC2)C3C(C)C)CC1 (stereo not shown)", "Dmax": "> 75%"}
{"compound": "CCCC(c1ccc(C(=O)N(C)CCCCCCCCC(=O)N2CCN(Cc3c(OC)cc(-c4cn(C)c(=O)c(C)c4C)cc3OC)CC2)cc1)N(C)C(=O)/C(C#N)=C/c1nccs1 (mixture of isomers)", "Dmax": "> 75%"}
{"compound": "COc1cc(-c2cn(C)c(=O)c(C)c2C)cc(OC)c1CN1CCC(Oc2cccc3c2CCN(C(=O)/C(C#N)=C/c2ccc(C(F)(F)F)cn2)C3C)CC1 (mixture of isomers)", "Dmax": "> 75%"}
{"compound": "COc1cc(-c2cn(C)c(=O)c3[nH]ncc23)cc(OC)c1CN1CCN(Cc2cccc3c2CCN(C(=O)/C(C#N)=C/C(C)(C)C)C3C)CC12CC2 (mixture of isomers)", "Dmax": "> 75%"}
